B1: Intersectin-1, residues 909 to 971; numbered along this chain, Q15811 (parent)
chain: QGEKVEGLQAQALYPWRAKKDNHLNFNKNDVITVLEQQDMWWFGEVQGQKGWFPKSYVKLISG

- Variants of: B1
- method: abundance fitness (aPCA) (normalised: wild type 0, dead -1); higher = more abundant; growth selection in yeast, the domain comes from the species named
- conditions: Homo sapiens
Record form. Attribute: abundance fitness. Fill in for each entry.
Lab note: record the figure alone, no unit after it.

Supply abundance fitness value. Item: `A18N` -0.086

Name the recorded abundance fitness of the item `G63W` in your answer. -0.276

Give recorded abundance fitness. `W41K` -0.427

Look up and report measured abundance fitness for this entry: `P15F` -0.224

State its abundance fitness for this variant: `W16H` -0.051

Quick one: give measured abundance fitness for `Y57V` -0.084

Look up and report measured abundance fitness for this entry: `V31L` -0.022

Specify abundance fitness for `E3W` and stop. -0.332

# return recorded abundance fitness for input `S62A` 0.062

Give the measured abundance fitness for `S62L` -0.084

Please look at this variant and report its abundance fitness: `Q47S` -0.167

Identify measured abundance fitness corresponding to `V31K` -0.006

In one line, give reported abundance fitness of the entry `V5S` . -0.115

Tell me measured abundance fitness for `G48D` please. -0.061

Look up and state reported abundance fitness for `D21H` 0.01

Tell me abundance fitness reported for `K50D` -0.256

# return recorded abundance fitness for entry `S62T` -0.209

Return reported abundance fitness. Input variant: `K50I` -0.224

State, in one line, measured abundance fitness of `G48Q` -0.38

Look up and report measured abundance fitness for this entry: `K59V` -0.234

Specify measured abundance fitness for `L13T` . -0.233

State, in one line, measured abundance fitness of `W16V` -0.357
